Reported growth is given for each of the following molecules.
# Test system: HL-60(TB) leukemia
# assay_protocol: NCI-60 one-dose screen, 48 h (100 = growth as untreated, 0 = no growth, -100 = all killed)
# condition_info: 10 µM unless noted
The panel holds about 83,000 compounds, 20% with a hit somewhere; the sample as a whole holds those more often.
Quick note: give the figure in %, leave out the unit.

A selection of reference data follows.
molecule	readout_value
C#CC[C@@H]1C[C@]2(C)[C@H]3CC[C@@H]4[C@H]5C(C(=C)C)CC[C@]5(C(=O)NCCCCCCCCN)CC[C@@]4(C)[C@]3(C)CC[C@H]2C(C)(C)[C@H]1OC(C)=O (stereo partly specified)	22
CC(=O)n1cc(/C=C2\N=C(c3ccc(Cl)cc3)N(c3ccc(S(=O)(=O)Nc4nccs4)cc3)C2=O)c2ccccc21	73.3
O=c1oc2ccc(-c3ccc(F)cc3F)cc2c(=O)n1-c1cccc(C(F)(F)F)c1	-33.3
CC1(C)CC[C@]2(C(=O)N[C@H](CO)Cc3ccccc3)CC[C@]3(C)C(=CC[C@@H]4[C@@]5(C)CCCNC(C)(C)[C@@H]5CC[C@]43C)[C@@H]2C1	31.2
O=C1c2cc3c(cc2-c2c1c1ccc(F)cc1c(=O)n2CCCNCCO)OCO3	-58.1
CCC(C)C(N)C(=O)NC(CC(C)C)C(=O)N1CCCC1C(=O)NC(Cc1c[nH]c2ccccc12)C(=O)NC(CCCCN)C(=O)NC(Cc1c[nH]c2ccccc12)C(=O)N1CCCC1C(=O)NC(Cc1c[nH]c2ccccc12)C(=O)NC(Cc1c[nH]c2ccccc12)C(=O)N1CCCC1C(=O)NC(Cc1c[nH]c2ccccc12)C(=O)NC(CCCNC(=N)N)C(=O)NC(CCCNC(=N)N)C(N)=O (stereo unspecified)	-2.6
COC(=O)C1=C(C(=O)ON)[C@@H]2C=C[C@@]1([C@@H](Cc1ccccc1)Nc1ccccc1)O2	-3.29
CC(=O)OC[C@H]1OC(Sc2sc(C(=O)c3ccc(Cl)cc3)c(N)c2-c2nc3ccccc3s2)[C@H](OC(C)=O)[C@@H](OC(C)=O)[C@@H]1OC(C)=O (stereo partly specified)	108
COc1ccc(-c2cc(-c3nnc(SCC(=O)Nc4ccc(C(C)=O)cc4)n3-c3ccccc3)c3ccccc3n2)cc1OC	100
CC(=O)N[C@H](C(=O)N[C@@H](CCCNC(=N)N)C(=O)N[C@@H](CCCCN)C(=O)N[C@@H](CCCNC(=N)N)C(=O)NC(C(=O)N[C@@H](CC(C)C)C(=O)N[C@@H](CCCNC(=N)N)C(=O)N[C@@]1(C)CCC/C=C\CCC[C@@](C)(C(=O)N[C@@H](CCCNC(=N)N)C(=O)N[C@@H](CCC(=O)O)C(=O)N[C@@H](CC(C)C)C(=O)N[C@H](C(=O)N[C@@H](CCC(=O)O)C(N)=O)C(C)C)NC(=O)[C@H](CCC(N)=O)NC(=O)[C@H](CC(C)C)NC(=O)[C@H](CC(C)C)NC1=O)[C@@H](C)O)C(C)C (stereo partly specified)	-41

// query Given the molecule COC(=O)C1=Nc2ccc(F)cc2/C1=C/c1sc(=S)[nH]c1O , what is its reported growth?
// result -28.8

* * *

# System: 786-0 renal
# assay_protocol: NCI-60 one-dose screen, 48 h
# condition_info: 10 µM unless noted
About 83,000 compounds went through this panel and 20% of them were active in at least one assay; those are over-represented in the sample as a whole. Activity calls are given as the source filed them. How the source made its calls: active means growth percent below 10; inactive means the rest.
# valid calls are active, inactive; nothing else

Some entries whose results are on file:
COc1cc(CNCCc2ccc(Cl)cc2)cc(OC)c1O inactive
Oc1c(Br)cc(Br)cc1Br.[Cu+2] inactive
CC(=O)[O][Hg][c]1ccccc1 active
CC(C)Nc1ccc(Nc2ccccc2)cc1 inactive

// query Test call, this compound: ClCCN(CCCl)c1ccc(/C=C\c2ccnc3ccccc23)cc1
// result inactive

* * *

# System: SK-MEL-5 melanoma
# assay_protocol: NCI-60 one-dose screen, 48 h (100 = growth as untreated, 0 = no growth, -100 = all killed)
# condition_info: 10 µM unless noted
# Description: Growth inhibition of the SK-MEL-5 human tumor cell line is measured as a screen for anti-cancer activity. Cells are grown in 96 well plates and exposed to the test compound for 48 hours. Compounds are tested at a single concentration, which is 10^-5 M for most compounds. The reported endpoint is percent growth (GI% or GIPRCNT), where numbers from 0 - 100% represent growth inhibition, and numbers from -100% - 0 represent cell death. For example, a value of 40 represents 60% growth inhibition. […]
Compounds without any hit were thinned out: in the full panel of roughly 83,000, 20% have a hit.
List of growth values.
Please state the figure in %; there is no need to write the unit.

These solved cases illustrate the format of a correct answer.
molecule	result_units	growth
NC(=O)OCC(CO)(c1ccccc1)c1ccccc1	%	96.4
CCCCCCCCCCOc1ccc(C(=O)Oc2ccc(CSP3(=O)OCC4OC(n5ccc(=O)[nH]c5=O)C(F)C4OP(=O)(O)OCC4OC(n5cnc6c(N)ncnc65)C(F)C4O3)cc2)cc1 (centres undefined)	%	111
CC(=O)OC1CCC2(C)C(=CCC3C4CC(CN5CC5)C(=O)C4(C)CCC32)C1 (centres undefined)	%	99.1
COc1cc(/C=C\c2cc(OC)c(OC)c(OC)c2)cc(N/C=C\C(=O)c2ccc(OC(F)(F)F)cc2)c1OC	%	27.6

// query Please provide the recorded growth for O=[N+]([O-])c1ccc(/C=C/C=C/c2ccc(S(=O)(=O)F)cc2)c(Cl)c1 , tested on SK-MEL-5 melanoma.
// result 97.9

// query Now this one: Nc1cccc(CC(=O)Nc2ccc(S(=O)(=O)F)cc2)c1
// result 104

// query Param item: C[C@]12CC[C@H](OC3OC(O)C(O)C(O)C3O)C=C1CCC1C2CC[C@]2(C)[C@@H](c3ccc(=O)oc3)CC[C@]12O (some centres undefined)
// result -96.3

// query Repeat with COC(=O)C1CC2c3ccccc3C1c1ccccc12 (centres undefined)
// result 94

// query C=CCN1C(=O)C(CC)(CCC(C)C)C(=O)NC1=S (centres undefined) , same question.
// result 105

// query And what about the molecule COc1ccccc1N1CCN(CCc2c[nH]c3cc4c(cc23)OCO4)CC1 ?
// result 74.8

// query Follow-up item: O=CN1N=C(c2ccccc2)CC1c1sc(N(CCCl)CCCl)nc1Cl (centres undefined)
// result 98.5

// query Try this molecule next: Cc1ccccc1O
// result 106

// query What do you have for CC1(C)N=C(N)N=C(N)N1c1ccc(CCCCc2ccc(Cl)cc2S(=O)(=O)F)c(Cl)c1 ?
// result 19.5

// query And the next one, CCCC(C)(C)c1ccc2c(c1)OC(C)(C)[C@@H]1CC=C(C)C[C@@H]21 ?
// result 102

* * *

# Tested on: MDA-MB-435 melanoma
# assay_protocol: NCI-60 one-dose screen, 48 h (100 = growth as untreated, 0 = no growth, -100 = all killed)
# condition_info: 10 µM unless noted
Compounds without any hit were thinned out: in the full panel of roughly 83,000, 20% have a hit.
property_measured: growth (%)
Numbers only here, please. The scale is %.

compound	growth / %
Oc1ccc(Br)cc1CN1CCN(Cc2ccc(Cl)cc2)CC1	12.8
CCCCCN(CCCCC)CC(O)c1ccc(C)c(Cl)c1 (centres undefined)	104
CCOc1cc(C=C(C#N)C#N)cc(Br)c1O	101

Consider the additional compound presented here.
// query Quick check: growth of N#[N+]c1cnc([O-])[nH]c1=O ?
// result 106

* * *

# Tested on: HL-60(TB) leukemia
# assay_protocol: NCI-60 one-dose screen, 48 h (100 = growth as untreated, 0 = no growth, -100 = all killed)
# condition_info: 10 µM unless noted
The panel holds about 83,000 compounds, 20% with a hit somewhere; the sample as a whole holds those more often.
Here the recorded growth is given for each entry.
// units = %; emit number, no label

compound	result_units	readout_value
CC1=C2C(=C[C@@](C)(CO)[C@@H]2OC(=O)N(C)CCN(C)C(=O)OC(C)(C)C)C(=O)[C@](C)(O)C12CC2	%	46.1

// query Query (compound): CCCOC(=O)c1c(C)n(C)c2scc[n+]12 ; field requested: growth
// result 92.6

// query Do the same for ClCCN(CCCl)c1ccc(C=NCCc2c[nH]c3ccccc23)cc1 please
// result 91

// query And then Cn1c(NCCc2ccc(O)c(O)c2)nc2c1c(=O)n(Cc1ccc(Br)cc1)c(=O)n2C , what is it?
// result 2.61

// query For O=C1C=CC(=O)N1c1ccc(I)cc1Cl then?
// result 97.9

// query // same read-out, input: Cc1cnc(-c2ccc(-c3ccc(NC(=O)Nc4c(F)cc(F)cc4F)cc3F)c3c2C(=O)NC3)[nH]1
// result 58.1

// query // same read-out, input: COc1cc(OC)c2c(=O)c(O)c(-c3ccccc3)oc2c1
// result 53.4

// query Likewise for C(=C1c2ccccc2-c2ccccc21)c1ccncc1 ?
// result 9.03

// query Continue with CCN(CC)c1ccc2nc3c4ccccc4c(=NC(=O)c4ccccc4-c4c5ccc(N(CC)CC)cc5[o+]c5cc(N(CC)CC)ccc45)cc-3oc2c1
// result -69.7

// query Another compound to check: Cc1ccc(NC(=S)NNC(=S)Nc2ccc(C)cc2)cc1
// result 44.7

// query Queued: C/C(=C(/c1ccc(Cl)cc1)c1ccc(OCCCN(C)C)cc1)c1ccc(Cl)cc1
// result 72.9

Source of measurements: PubChem BioAssay (NCI)
